Source listed as patent US12421253B2.

# assayedSystem: KRas^G12D (Homo sapiens, UniProt P01116, G12D)
# Construct: […]; biotin (biotinylated)
# Sequence (P01116 1-169 isoform P01116-2 G12D): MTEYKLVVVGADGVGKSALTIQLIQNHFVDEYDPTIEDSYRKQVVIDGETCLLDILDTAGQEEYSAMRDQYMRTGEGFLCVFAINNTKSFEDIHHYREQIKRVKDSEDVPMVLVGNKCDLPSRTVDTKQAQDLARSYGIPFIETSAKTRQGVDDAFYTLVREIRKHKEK
# assayMethodText: KRas binding assay (TR-FRET displacement of Cy5 labelled tracer)
Overview of recorded IC50 for various compounds
The figure you give is taken to be in µM; do not add the unit.

Some entries whose results are on file:
CCc1cccc2cccc(N3CCc4c(nc(OCC56CCCN5CCC6)nc4N4CC5(CNC(=O)N5)C4)C3)c12	43
CCc1cccc2cccc(N3CCc4c(nc(OCC56CCCN5CCC6)nc4N4CCOC5(CCSC5)C4)C3)c12 (stereo not drawn)	5.07
CCc1cccc2cccc(N3CCc4c(nc(OCC56CCCN5CCC6)nc4NCc4ccc5nncn5c4)C3)c12	7.11
Oc1cc(N2CCc3c(nc(OC[C@@]45CCCN4C[C@H](F)C5)nc3N3CC4CC(O)CC3C4)C2)c2c(Cl)c(F)ccc2c1 (single isomer, unassigned) [Example 77]	0.74

[in] I'd like to know its IC50. The compound in question is Oc1cc(N2CCc3c(nc(OC[C@@]45CCCN4C[C@H](F)C5)nc3N3CC4CC(O)CC3C4)C2)c2c(Br)c(F)ccc2c1 (single isomer, unassigned) [Example 214]
[out] 0.558
